experiment: reversed-phase LC retention time (C18, 15 min MeOH gradient); higher = more hydrophobic / later elution
experimental-setup: ionization mode: ESI-; ion species: [M-H]-
Items are presented alongside their recorded reversed-phase LC retention time.

>  <molecule>
C=CCC1(C(C)CCC)C(=O)NC(=O)NC1=O (configuration not stated) [Secobarbital]

>  <reversed-phase LC retention time [min]>
12.7

$$$$
>  <molecule>
CCc1cc(Cc2cc(CC)cc(C(C)(C)C)c2O)c(O)c(C(C)(C)C)c1 [2,2'-Methylenebis(4-ethyl-6-t-butylphenol)]

>  <reversed-phase LC retention time [min]>
19.3

$$$$
>  <molecule>
Cc1ccc(S(N)(=O)=O)cc1 [p-Toluenesulfonamide]

>  <reversed-phase LC retention time [min]>
8.4

$$$$
>  <molecule>
CCCCC(=O)O[C@]1(C(=O)CO)[C@@H](C)C[C@H]2[C@@H]3CCC4=CC(=O)C=C[C@]4(C)[C@@]3(F)[C@@H](O)C[C@@]21C [Betamethasone-17-valerate]

>  <reversed-phase LC retention time [min]>
16

$$$$
>  <molecule>
CCCCCCCCCCCCS(=O)(=O)O [1-Dodecanesulfonic acid]

>  <reversed-phase LC retention time [min]>
16.1

$$$$
>  <molecule>
Cc1ccc(O)c(-n2nc3ccccc3n2)c1 [Drometrizole]

>  <reversed-phase LC retention time [min]>
17.1

$$$$
>  <molecule>
N#Cc1nn(-c2c(Cl)cc(C(F)(F)F)cc2Cl)c(N)c1C(F)(F)F [Fipronil desulfinyl]

>  <reversed-phase LC retention time [min]>
15.4

$$$$
>  <molecule>
CN(C(=O)CO)c1c(I)c(C(=O)NCC(O)CO)c(I)c(C(=O)NCC(O)CO)c1I (configuration not stated) [Iomeprol]

>  <reversed-phase LC retention time [min]>
5.58

$$$$
>  <molecule>
CC(C)OC(=O)Nc1cccc(Cl)c1 [Chlorpropham]

>  <reversed-phase LC retention time [min]>
14.7

$$$$
>  <molecule>
O=C(O)COCCN1CCN(C(c2ccccc2)c2ccc(Cl)cc2)CC1 (configuration not stated) [Cetirizine]

>  <reversed-phase LC retention time [min]>
14.6

$$$$
>  <molecule>
CS(=O)(=O)c1ccc(C(=O)C2C(=O)CCCC2=O)c(Cl)c1 [Sulcotrione]

>  <reversed-phase LC retention time [min]>
6.87

$$$$
>  <molecule>
C[C@]12CC[C@@H]3c4ccc(O)cc4CC[C@H]3[C@@H]1CC[C@H]2O [17-alpha-Estradiol]

>  <reversed-phase LC retention time [min]>
14.5

$$$$
>  <molecule>
O=S(=O)(O)c1ccc2ccc(S(=O)(=O)O)cc2c1 [2,7-Naphthalenedisulfonic acid]

>  <reversed-phase LC retention time [min]>
0.97

$$$$
>  <molecule>
CC(C)c1cc(C(C)(C)c2ccc(O)c(C(C)C)c2)ccc1O [Bisphenol G]

>  <reversed-phase LC retention time [min]>
16.8

$$$$
>  <molecule>
CC(=O)C1(O)CCC2C3CCC4=CC(=O)CCC4(C)C3CCC21C (stereo not drawn) [17alpha-Hydroxyprogesterone]

>  <reversed-phase LC retention time [min]>
14.8

$$$$
>  <molecule>
C[C@H]1CCCC(=O)CCC/C=C/c2cc(O)cc(O)c2C(=O)O1 [Zearalenone]

>  <reversed-phase LC retention time [min]>
14.4

$$$$
>  <molecule>
Cc1cccc(Nc2ccccc2C(=O)O)c1C [Mefenamic acid]

>  <reversed-phase LC retention time [min]>
13.6

$$$$

Each recorded value in this set is attributed to the supplement of paper PMC12613149.
